Some compounds, each annotated with its measured IC50.
- System Tested: purified recombinantly expressed human SSAO (Homo sapiens, UniProt Q16853)
- Sequence (Q16853 whole entry): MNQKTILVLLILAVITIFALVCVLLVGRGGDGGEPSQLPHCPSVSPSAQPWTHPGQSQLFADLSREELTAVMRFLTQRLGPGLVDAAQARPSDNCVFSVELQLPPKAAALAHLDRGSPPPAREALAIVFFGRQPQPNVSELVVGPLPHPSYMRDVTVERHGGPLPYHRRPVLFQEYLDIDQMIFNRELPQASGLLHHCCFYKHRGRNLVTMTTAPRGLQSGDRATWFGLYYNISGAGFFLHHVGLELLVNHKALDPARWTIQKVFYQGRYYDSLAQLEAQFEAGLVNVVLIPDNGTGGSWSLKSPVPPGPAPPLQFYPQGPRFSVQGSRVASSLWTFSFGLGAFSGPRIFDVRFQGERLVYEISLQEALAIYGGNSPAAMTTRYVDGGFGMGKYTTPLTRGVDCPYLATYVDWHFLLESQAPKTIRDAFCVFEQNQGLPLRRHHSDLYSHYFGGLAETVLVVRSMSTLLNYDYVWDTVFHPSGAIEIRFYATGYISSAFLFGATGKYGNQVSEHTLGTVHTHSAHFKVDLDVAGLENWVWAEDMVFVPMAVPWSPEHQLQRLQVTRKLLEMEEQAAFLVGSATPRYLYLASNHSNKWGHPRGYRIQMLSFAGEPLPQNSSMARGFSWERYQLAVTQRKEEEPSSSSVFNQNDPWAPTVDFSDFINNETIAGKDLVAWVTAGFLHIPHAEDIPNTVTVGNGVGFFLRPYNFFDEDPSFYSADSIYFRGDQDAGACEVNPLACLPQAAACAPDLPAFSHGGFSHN
- Test Details: SSAO enzyme inhibition assay (benzylamine substrate; hydrogen peroxide/HRP-coupled or 14C aldehyde detection)
- Study Conditions: SSAO inhibitory activity, RT

[[record]]
molecular_string = "O=c1ccc(-c2nc3ccncc3n2-c2ccc(Cl)cc2F)c[nH]1"
system_tested = "purified recombinantly expressed human SSAO (Homo sapiens, UniProt Q16853)"
measured_value = "200 to 1200 nM"

[[record]]
molecular_string = "O=c1cc(N2CCOCC2)[nH]cc1-c1nc2ccncc2n1-c1ccc(F)cc1"
system_tested = "purified recombinantly expressed human SSAO (Homo sapiens, UniProt Q16853)"
measured_value = "< 50 nM"

[[record]]
molecular_string = "Fc1ccccc1-n1c(-c2ccc(N3CCOCC3)nc2)nc2ccncc21"
system_tested = "purified recombinantly expressed human SSAO (Homo sapiens, UniProt Q16853)"
measured_value = "< 50 nM"

[[record]]
molecular_string = "Cn1ccc(-c2nc3ccncc3n2-c2ccc(Cl)cc2)cc1=O"
system_tested = "purified recombinantly expressed human SSAO (Homo sapiens, UniProt Q16853)"
measured_value = "< 50 nM"


Task: Fill in IC50 for `Fc1cc(Cl)ccc1-n1c(-c2ccc(N3CCOCC3)nc2)nc2ccncc21` tested with purified recombinantly expressed human SSAO (Homo sapiens, UniProt Q16853).
Output: 50 to 200 nM

Task: Write down measured IC50 (purified recombinantly expressed human SSAO (Homo sapiens, UniProt Q16853)) for this compound. `CN(C)c1ccc(-c2nc3ccncc3n2-c2ccc(F)cc2)cn1`
Output: 200 to 1200 nM

Task: Print purified recombinantly expressed human SSAO (Homo sapiens, UniProt Q16853) IC50 for `Cc1cc(N2CCOCC2)nc(C)c1-c1nc2ccncc2n1-c1ccc(F)cc1` .
Output: 200 to 1200 nM

Task: Provide IC50, tested on purified recombinantly expressed human SSAO (Homo sapiens, UniProt Q16853), for `Fc1ccc(-n2c(-c3ccnc(N4CCOCC4)c3)nc3ccncc32)cc1` .
Output: 50 to 200 nM

Task: State the measured IC50 (purified recombinantly expressed human SSAO (Homo sapiens, UniProt Q16853)) of `CN(C)c1ncc(-c2nc3ccncc3n2-c2ccc(Cl)cc2)cn1`
Output: 200 to 1200 nM

---

- System Tested: human ether a go-go related gene (hERG) K+ channel (Homo sapiens)
- Construct: a Chinese Hamster Lung cell line stably expressing the full length hERG channel
- Sequence (Q12809 whole entry): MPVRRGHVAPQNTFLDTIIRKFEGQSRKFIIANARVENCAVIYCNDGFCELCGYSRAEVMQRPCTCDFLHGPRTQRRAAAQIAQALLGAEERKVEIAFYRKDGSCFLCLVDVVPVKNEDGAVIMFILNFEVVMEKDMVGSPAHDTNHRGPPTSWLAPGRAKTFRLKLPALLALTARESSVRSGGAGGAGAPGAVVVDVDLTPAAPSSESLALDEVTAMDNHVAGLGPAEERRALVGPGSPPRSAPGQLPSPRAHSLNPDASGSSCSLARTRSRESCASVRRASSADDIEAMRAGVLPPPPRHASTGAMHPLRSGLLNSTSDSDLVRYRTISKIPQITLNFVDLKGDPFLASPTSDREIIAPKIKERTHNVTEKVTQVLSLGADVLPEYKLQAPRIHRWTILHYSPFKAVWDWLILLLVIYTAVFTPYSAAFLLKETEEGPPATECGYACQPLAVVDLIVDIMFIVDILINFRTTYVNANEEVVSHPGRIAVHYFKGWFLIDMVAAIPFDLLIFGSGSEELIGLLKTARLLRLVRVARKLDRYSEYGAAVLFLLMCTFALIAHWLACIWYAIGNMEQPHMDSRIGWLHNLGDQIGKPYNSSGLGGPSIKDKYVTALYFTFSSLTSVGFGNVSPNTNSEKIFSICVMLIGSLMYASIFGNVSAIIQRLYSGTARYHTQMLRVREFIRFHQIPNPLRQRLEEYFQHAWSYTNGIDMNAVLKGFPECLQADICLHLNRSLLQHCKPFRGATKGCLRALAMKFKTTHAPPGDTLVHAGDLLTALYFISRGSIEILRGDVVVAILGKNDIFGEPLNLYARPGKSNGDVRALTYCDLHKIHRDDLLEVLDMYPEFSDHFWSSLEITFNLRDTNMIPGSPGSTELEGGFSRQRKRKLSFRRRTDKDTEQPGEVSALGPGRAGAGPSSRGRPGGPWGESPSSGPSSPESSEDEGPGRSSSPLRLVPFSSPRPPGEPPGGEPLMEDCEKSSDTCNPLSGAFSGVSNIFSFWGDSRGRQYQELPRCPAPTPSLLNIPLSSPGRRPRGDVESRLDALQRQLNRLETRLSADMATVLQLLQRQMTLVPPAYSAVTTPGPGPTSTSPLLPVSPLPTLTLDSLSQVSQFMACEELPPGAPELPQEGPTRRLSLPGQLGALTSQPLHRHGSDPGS
- Test Details: hERG assay, IonWorks patch clamp electrophysiology
- Study Conditions: Chinese Hamster Lung cell line stably expressing hERG; max assay concentration 11 uM
pIC50: −log10 of the molar value.
Parameter Measured: pIC50

Below are worked cases with known answers.
[[record]]
compound = "CS(=O)(=O)NC1CCN(c2ccc(-c3nc4ccncc4n3-c3ccc(Cl)cc3)cn2)CC1 [Example 88]"
parameter_measured = "pIC50"
measured_value = "5.00 to 6.00"

[[record]]
compound = "CC(=O)NC1CCN(c2ccc(-c3nc4ccncc4n3-c3ccc(Cl)cc3)cn2)CC1 [Example 85]"
parameter_measured = "pIC50"
measured_value = "< 5.00"

[[record]]
compound = "c1ccc(-n2c(-c3cnc(N4CCOCC4)nc3)nc3ccncc32)cc1 [Example 95]"
parameter_measured = "pIC50"
measured_value = "< 5.00"

[[record]]
compound = "Nc1cc(-c2cc3ccncc3n2-c2ccc(Cl)cc2)ccn1 [Example 147]"
parameter_measured = "pIC50"
measured_value = "5.00 to 6.00"

[[record]]
compound = "Clc1ccc(-n2c(-c3cnc(N4CCOCC4)nc3)nc3ccncc32)nc1 [Example 75, tris(trifluoroacetic acid)]"
parameter_measured = "pIC50"
measured_value = "< 5.00"

[[record]]
compound = "Cc1ccc(-n2c(-c3ccc(N4CCOCC4)nc3)nc3ccncc32)cc1 [Example 63]"
parameter_measured = "pIC50"
measured_value = "< 5.00"

[[record]]
compound = "Clc1ccc(-n2c(-c3cccnc3)cc3ccncc32)cc1 [Example 122]"
parameter_measured = "pIC50"
measured_value = "5.00 to 6.00"

[[record]]
compound = "Nc1ccc(-c2nc3ccncc3n2-c2ccc(Cl)cc2)cn1 [Example 110]"
parameter_measured = "pIC50"
measured_value = "< 5.00"


Task: Please look at this compound and report its pIC50: Clc1ccc(-n2c(-c3ccc(N4CCOCC4)nn3)nc3ccncc32)cc1 [Example 4]
Output: 5.00 to 6.00
